# experimental-target: L1 EN (LINE-1 retrotransposon endonuclease domain) (Homo sapiens, UniProt O00370, N5T)
# Sequence (O00370 1-239 N5T): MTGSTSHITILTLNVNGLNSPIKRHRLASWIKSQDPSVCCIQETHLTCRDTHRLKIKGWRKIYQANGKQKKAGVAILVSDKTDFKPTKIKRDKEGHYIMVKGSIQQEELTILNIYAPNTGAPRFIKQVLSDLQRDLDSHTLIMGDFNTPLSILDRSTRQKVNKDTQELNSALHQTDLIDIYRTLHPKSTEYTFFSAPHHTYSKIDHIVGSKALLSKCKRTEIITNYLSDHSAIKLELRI
# experiment-summary: Fluorescent oligonucleotide EN nicking activity assay
# Format: biochemical
# measurement-context: [Inhibitor] 500 μM; technical replicates 1-3, Fig. 2b source data; read-out: EN activity, percent of no inhibitor control
The reader will find reported remaining activity at 500 µM values listed item by item below.
Form entry: value (%) — number only.

Form field remaining activity at 500 µM, entry O=C(O)C1CCC(Cn2c(=S)[nH]c3ccc(F)cc3c2=O)CC1 (stereo not drawn) : 16.8

remaining activity at 500 µM reading for O=C(Cn1nc(-c2ccc(Br)cc2)ccc1=O)NC[C@H]1CC[C@H](C(=O)O)CC1 : 82.7

Input COc1ccc2c(c1)C(=O)N(CCc1ccc(S(=O)(=O)NC(=O)NC3CCCCC3)cc1)C(=O)C2(C)C . Output remaining activity at 500 µM: 62.1

Per the record, C[C@H]1C[C@H](C)CN(CCCNc2ccc(C(=O)Nc3ccc(C(F)(F)F)cc3)cc2[N+](=O)[O-])C1 has remaining activity at 500 µM of 45.2

Noted for COc1ccc(OC)c(NS(=O)(=O)c2ccc(NS(=O)(=O)c3cccc([N+](=O)[O-])c3)cc2)c1 : its remaining activity at 500 µM reads 60.1

Measured remaining activity at 500 µM of Cc1cc(O[C@H](C)C(=O)NC[C@H]2CC[C@H](C(=O)O)CC2)c2c3c(c(=O)oc2c1)CCC3 : 1.24
